All figures here come from patent US20260258032A1.

For each entry below, report its pIC50 value.
# study-target: JH2 domain of human Tyk2 (Homo sapiens, UniProt P29597)
# Construct: 10×His-tagged TYK2 JH2 domain (amino acid 575-876)
# Sequence (P29597 575-876): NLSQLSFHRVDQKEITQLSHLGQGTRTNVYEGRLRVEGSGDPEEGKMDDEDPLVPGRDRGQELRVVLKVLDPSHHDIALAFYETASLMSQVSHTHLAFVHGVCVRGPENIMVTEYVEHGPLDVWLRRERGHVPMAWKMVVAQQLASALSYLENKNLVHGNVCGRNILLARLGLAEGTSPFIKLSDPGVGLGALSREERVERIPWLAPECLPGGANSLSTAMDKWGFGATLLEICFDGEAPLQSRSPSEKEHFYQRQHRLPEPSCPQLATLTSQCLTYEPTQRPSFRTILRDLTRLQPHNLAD
# assay-comment: JH2 biochemical assay (TR-FRET probe displacement)
# Format: binding
# conditions: JH2 biochemical assay
pIC50: −log10 of the molar value. Structures can show the parent of a compound that is named as a salt.

CC(=O)Nc1cc2c(cn1)C1(CC1)CN2c1nccs1 [Example 77, trifluoroacetate] ... 6.00 to 7.00
COC1(C)CC1Nc1cc(N2CC3(CC3)c3cnc(NC(C)=O)cc32)nc(C(C)(F)F)n1 (stereo not shown) [Example 173, trifluoroacetate] ... ≥ 8.00
COCCC1(C#N)CN(c2nc(C)cc(N3CC4(CC4)c4cnc(NC(C)=O)cc43)n2)C1 [Example 220] ... 7.00 to 8.00
CC(=O)Nc1cc2c(cn1)C1(CC1)CN2c1cc(NC2CCOC2)nc(C(C)(F)F)n1 (stereo not shown) [Example 179, trifluoroacetate] ... ≥ 8.00
CC(=O)Nc1cc2c(cn1)C1(CC1)CN2c1cc(C)nc(C2CCCN(S(C)(=O)=O)C2)n1 (stereo not shown) [Example 119] ... 7.00 to 8.00
CC(=O)Nc1cc2c(cn1)C1(CC1)CN2c1cc(C)cc(N2CC(C#N)(CF)C2)n1 [Example 196] ... 7.00 to 8.00
CC(=O)Nc1cc2c(cn1)C1(CC1)CN2c1cc(NC(C)C)nc(C(C)(F)F)n1 [Example 153, trifluoroacetate] ... ≥ 8.00
CC(=O)Nc1cc2c(cn1)C1(CC1)CN2c1cc(OC2(C#N)CC2)nc(C(C)(F)F)n1 [Example 144, trifluoroacetate] ... 7.00 to 8.00
CC(=O)Nc1cc2c(cn1)CCN2c1cccc(C2CCOC2)n1 (stereo not shown) [Example 33] ... 7.00 to 8.00
CC(=O)Nc1cc2c(cn1)C1(CC1)CN2c1cc(C)nc(OC2CC3(COC3)C2)n1 [Example 364] ... 6.00 to 7.00

Give one value of pIC50 per listed compound.
1. CC(=O)Nc1cc2c(cn1)C1(CC1)CN2c1cc(C)cc(N2CC3CCNC3C2)n1 (stereo not shown) [Example 210, trifluoroacetate]
2. CCS(=O)(=O)C1CN(c2nc(C)cc(N3CC4(CC4)c4cnc(NC(C)=O)cc43)n2)C1 [Example 225]
3. CC(=O)Nc1cc2c(cn1)C1(CC1)CN2c1cc(C)nc(OCCF)n1 [Example 288]
4. COc1cc(N2CC3(CC3)c3cnc(NC(C)=O)cc32)nc(C(C)(F)F)c1 [Example 9]

Response:
1: 6.00 to 7.00; 2: 6.00 to 7.00; 3: ≥ 8.00; 4: ≥ 8.00

---

# study-target: JH2 domain of human Tyk2 (Homo sapiens)
# Construct: 10×His-tagged TYK2 JH2 domain (amino acid 575-876)
# assay-comment: JH2 biochemical assay (TR-FRET probe displacement)
# Assay type: binding
# conditions: JH2 biochemical assay
Structures can show the parent of a compound that is named as a salt.
For each entry below, report its IC50 value.

CC(=O)Nc1cc2c(cn1)C1(CC1)CN2c1cc(C)nc(N2CC(C#N)(CF)C2)n1 ... ≤ 10 nM
COC1(CNc2cc(N3CC4(CC4)c4cnc(NC(C)=O)cc43)nc(C(C)(F)F)n2)CC1 [Example 161, trifluoroacetate] ... ≤ 10 nM
CC(=O)Nc1cc2c(cn1)C1(CC1)CN2c1cc(C)cc(OCC2CCO2)n1 (stereo not shown) [Example 358, trifluoroacetate] ... ≥ 1000 nM

Give one value of IC50 per listed molecule.
1. CC(=O)Nc1cc2c(cn1)C1(CC1)CN2c1ccnc(C(C)(F)F)n1
2. CC(=O)Nc1cc2c(cn1)C1(CCNCC1)CN2c1cccc(C(C)(F)F)n1

Response:
1: 10 to 100 nM; 2: ≥ 1000 nM

Give one value of IC50 per listed molecule.
1. CC(=O)Nc1cc2c(cn1)C1(CC1)CN2c1cc(C)cc(OC2CC(O)C2)n1 (stereo not shown)
2. CC(=O)Nc1cc2c(cn1)C1(CC1)CN2c1cc(C)nc(C2CCCCN2C)n1 (stereo not shown)
3. CC(=O)Nc1cc2c(cn1)C1(CC1)CN2c1cc(C)cc(N2CCC3(CC2)COC3)n1
4. COCCOc1ccnc(N2CC3(CC3)c3cnc(NC(C)=O)cc32)n1
5. CC(=O)Nc1cc2c(cn1)C1(CC1)CN2c1nc(C)cc(=O)[nH]1
6. CC(=O)Nc1cc2c(cn1)C1(CCOCC1)CN2c1nccc(C(C)(F)F)n1
7. COC1CC(Oc2cc(C)cc(N3CC4(CC4)c4cnc(NC(C)=O)cc43)n2)C1 (stereo not shown) [Example 343, trifluoroacetate]
8. CC(=O)Nc1cc2c(cn1)C1(CC1)CN2c1cc(C)nc(N2CC(C)(C#N)C2)n1

Response:
100 to 1000 nM
≥ 1000 nM
100 to 1000 nM
10 to 100 nM
≥ 1000 nM
≥ 1000 nM
100 to 1000 nM
≤ 10 nM

Give one value of IC50 per listed molecule.
1. CC(=O)Nc1cc2c(cn1)C1(CC1)CN2c1cc(NC2CSC2)nc(C(C)(F)F)n1 [Example 166, trifluoroacetate]
2. Cc1cc(N2CC3(CC3)c3cnc(NC(=O)N(C)C)cc32)nc(C(C)(F)F)n1
3. COCCOC1CCN(c2cc(C)cc(N3CC4(CC4)c4cnc(NC(C)=O)cc43)n2)C1 (stereo not shown)
4. CC(=O)Nc1cc2c(cn1)C1(CC1)CN2c1cc(C)cc(N2CC(C)(C#N)C2)n1

Response:
1: ≤ 10 nM; 2: 100 to 1000 nM; 3: 100 to 1000 nM; 4: 10 to 100 nM

Give one value of IC50 per listed molecule.
1. CCn1cc(-c2cc(C)cc(N3CC4(CC4)c4cnc(NC(C)=O)cc43)n2)cn1 [Example 260, trifluoroacetate]
2. CCC(=O)Nc1cc2c(cn1)C1(CC1)CN2c1ccnc(C(C)(F)F)n1
3. CC(=O)Nc1cc2c(cn1)C1(CC1)CN2c1cc(Oc2ccn(C)n2)nc(C(C)(F)F)n1 [Example 143, trifluoroacetate]
4. COC1CCN(c2nc(C)cc(N3CC4(CC4)c4cnc(NC(C)=O)cc43)n2)C1 (stereo not shown)
5. CC(=O)Nc1cc2c(cn1)C1(CC1)CN2c1cc([C@H]2C[C@H](C#N)C2)nc(C(C)(F)F)n1
6. CC(=O)Nc1cc2c(cn1)C1(CC1)CN2c1cc(C(C)(F)F)nc(Cl)n1
7. CC(=O)Nc1cc2c(cn1)C1(CC1)CN2c1cc(C)cc(N2CCNC(CCO)C2)n1 (stereo not shown) [Example 212, trifluoroacetate]
8. CC(=O)Nc1cc2c(cn1)C1(CC1)CN2c1cc(O[C@@H]2COC[C@H]2F)nc(C(C)(F)F)n1 (racemic)

Response:
1. 10 to 100 nM
2. ≤ 10 nM
3. ≤ 10 nM
4. ≤ 10 nM
5. ≤ 10 nM
6. 100 to 1000 nM
7. 100 to 1000 nM
8. 10 to 100 nM

Give one value of IC50 per listed molecule.
1. CC(=O)Nc1cc2c(cn1)C1(CC1)CN2c1cc(C)nc(-c2cnn(C(C)C)c2)n1
2. CC(=O)Nc1cc2c(cn1)C1(CC1)CN2c1cc(NCC(C)N(C)C)nc(C(C)(F)F)n1 (stereo not shown) [Example 180, trifluoroacetate]
3. CC(=O)Nc1cc2c(cn1)C1(CC1)CN2c1nc(C2CCCOC2)cs1 (stereo not shown) [Example 81, trifluoroacetate]
4. CC(=O)Nc1cc2c(cn1)C1(CC1)CN2c1cc(C)cc(-c2cnn(C3CC3)c2)n1 [Example 264, trifluoroacetate]
5. CCCc1nc(C)cc(N2CC3(CC3)c3cnc(NC(C)=O)cc32)n1
6. CNC(=O)Nc1cc2c(cn1)C1(CC1)CN2c1cc(C)nc(C(C)(F)F)n1

Response:
1. 10 to 100 nM
2. 10 to 100 nM
3. 10 to 100 nM
4. 10 to 100 nM
5. 10 to 100 nM
6. ≤ 10 nM
